Where these numbers come from: ChEMBL document CHEMBL3044735

# MIC values compiled below
Tested on: Mycobacterium tuberculosis
Assay: Antimycobacterial activity against Mycobacterium tuberculosis H37Ra after 5 days by two-fold dilution method
Format: functional
Conditions: 120 h
Quantity name: MIC

In [3]: df
Out[3]:
                                   molecule  result_value
0  CCOC(=O)[C@H]1N[C@@H](c2ccccc2)[C@@H]([N+](=O)[O-])[C@@H]1c1ccc2c(c1)CCC(C)(C)O2 (relative stereo)  > 12.5 µg/mL
1  CCCCCCC#CC(c1ccc2c(c1)CCC(C)(C)O2)N1CCOCC1 (configuration not stated)  > 12.5 µg/mL
2  CCCCCCC#CC(c1ccc2c(c1)CCC(C)(C)O2)N1CCCCC1 (configuration not stated)  > 12.5 µg/mL
3  CC1(C)CCc2cc(C(C#Cc3ccccc3)N3CCOCC3)ccc2O1 (configuration not stated)  > 12.5 µg/mL
4  CCCCCC#CC(c1ccc2c(c1)CCC(C)(C)O2)N1CCOCC1 (configuration not stated)  > 12.5 µg/mL
5  CCOC(=O)[C@H]1N[C@@H](c2ccc(OC)cc2)[C@@H]([N+](=O)[O-])[C@@H]1c1ccc2c(c1)CCC(C)(C)O2 (relative stereo)  > 12.5 µg/mL
6  CC1(C)CCc2cc(C(C#Cc3ccccc3)N3CCCCC3)ccc2O1 (configuration not stated)  > 12.5 µg/mL
